assay: Tissue distribution of PZ-DHA and metabolites after intraperitoneal injection; assay type: in vivo, Balb/c female mice; settings: female, Balb/c, mouse, kidneys/serum, intraperitoneal, 100 mg/kg; 120 min; read-out: Tissue/serum ratio of PZ-DHA (Mean ± SD) Kidneys/serum
Property Label: Kp at 120 min

-- ask Query (molecule): CC/C=C\C/C=C\C/C=C\C/C=C\C/C=C\C/C=C\CCC(=O)OC[C@H]1O[C@@H](Oc2cc(O)cc(O)c2C(=O)CCc2ccc(O)cc2)[C@H](O)[C@@H](O)[C@@H]1O [PZ-DHA, phloridzin docosahexaenoate] ; field requested: Kp at 120 min
-- reply 2.71
